# assayDetails: Tolerability in Sprague-Dawley rats: hematology assays (Example 44)
# Assay type: in vivo
# details: 50 mg/kg s.c. twice per week for 6 weeks, blood
Strand notation (5' to 3'): a small letter for the sugar, then the base; units joined by * are phosphorothioate-linked, units joined directly phosphodiester-linked; [ ] holds rarer units or linkages, { } end groups; capitals alone tell only the bases. e = 2'-O-(2-methoxyethyl) (MOE); [5mC] = 5-methylcytosine; d = 2'-deoxy (DNA)
endpointLabel: neutrophils (%)

{"columns": ["substance", "endpointLabel", "dataValue"],
 "data": [
  ["ISIS 449710: 3-8-3, 4-8-4, 2-10-2, 3-10-3 or 4-10-4 MOE microwalk gapmer (Table 46) (antisense e[5mC]*eA*e[5mC]*dA*dG*dT*dT*dT*d[5mC]*dT*dG*dG*d[5mC]*eA*eG*eG)", "neutrophils", 6],
  ["ISIS 449709: 3-8-3, 4-8-4, 2-10-2, 3-10-3 or 4-10-4 MOE microwalk gapmer (Table 46) (antisense eG*e[5mC]*eA*e[5mC]*dA*dG*dT*dT*dT*d[5mC]*dT*dG*dG*d[5mC]*eA*eG*eG*e[5mC])", "neutrophils", 5],
  ["ISIS 449707: 3-8-3, 4-8-4, 2-10-2, 3-10-3 or 4-10-4 MOE microwalk gapmer (Table 46) (antisense e[5mC]*eA*e[5mC]*eA*dG*dT*dT*dT*d[5mC]*dT*dG*dG*e[5mC]*eA*eG*eG)", "neutrophils", 6],
  ["ISIS 449708: 3-8-3, 4-8-4, 2-10-2, 3-10-3 or 4-10-4 MOE microwalk gapmer (Table 46) (antisense eA*e[5mC]*eA*dG*dT*dT*dT*d[5mC]*dT*dG*dG*e[5mC]*eA*eG)", "neutrophils", 6],
  ["ISIS 449711: 3-8-3, 4-8-4, 2-10-2, 3-10-3 or 4-10-4 MOE microwalk gapmer (Table 46) (antisense eA*e[5mC]*dA*dG*dT*dT*dT*d[5mC]*dT*dG*dG*d[5mC]*eA*eG)", "neutrophils", 7]
]}

* * *

# details: rat, in vivo, sc, 50 mg/kg
e = 2'-O-(2-methoxyethyl) (MOE); d = 2'-deoxy (DNA)

{"columns": ["substance", "Albumin"],
 "data": [
  ["ISIS 416856: MOE gapmer, nucleobases 1275 to 1318 of SEQ ID NO: 1 (Table 8) (antisense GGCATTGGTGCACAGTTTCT; MOE gapmer, wing and gap sizes not given here)", 4],
  ["ISIS 416848: MOE gapmer, nucleobases 1275 to 1318 of SEQ ID NO: 1 (Table 8) (antisense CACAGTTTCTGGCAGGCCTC; MOE gapmer, wing and gap sizes not given here)", 3],
  ["ISIS 416866: MOE gapmer, nucleobases 1275 to 1318 of SEQ ID NO: 1 (Table 8) (antisense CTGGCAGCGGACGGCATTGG; MOE gapmer, wing and gap sizes not given here)", 4],
  ["ISIS 416852: MOE gapmer, nucleobases 1275 to 1318 of SEQ ID NO: 1 (Table 8) (antisense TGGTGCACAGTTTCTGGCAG; MOE gapmer, wing and gap sizes not given here)", 4],
  ["ISIS 412223: 5-10-5 MOE gapmer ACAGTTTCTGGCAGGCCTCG (sugars from the 5' end e5 d10 e5, backbone and methylation of C not given here)", 5],
  ["ISIS 413481: 5-10-5 MOE gapmer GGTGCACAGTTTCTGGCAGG (sugars from the 5' end e5 d10 e5, backbone and methylation of C not given here)", 4],
  ["ISIS 412224: 5-10-5 MOE gapmer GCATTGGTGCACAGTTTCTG (sugars from the 5' end e5 d10 e5, backbone and methylation of C not given here)", 4],
  ["ISIS 416851: MOE gapmer, nucleobases 1275 to 1318 of SEQ ID NO: 1 (Table 8) (antisense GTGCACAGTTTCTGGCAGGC; MOE gapmer, wing and gap sizes not given here)", 4],
  ["ISIS 416861: MOE gapmer, nucleobases 1275 to 1318 of SEQ ID NO: 1 (Table 8) (antisense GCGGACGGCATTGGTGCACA; MOE gapmer, wing and gap sizes not given here)", 5]
]}
